Measurement target: T1, Calpain-1
T1 chain 1: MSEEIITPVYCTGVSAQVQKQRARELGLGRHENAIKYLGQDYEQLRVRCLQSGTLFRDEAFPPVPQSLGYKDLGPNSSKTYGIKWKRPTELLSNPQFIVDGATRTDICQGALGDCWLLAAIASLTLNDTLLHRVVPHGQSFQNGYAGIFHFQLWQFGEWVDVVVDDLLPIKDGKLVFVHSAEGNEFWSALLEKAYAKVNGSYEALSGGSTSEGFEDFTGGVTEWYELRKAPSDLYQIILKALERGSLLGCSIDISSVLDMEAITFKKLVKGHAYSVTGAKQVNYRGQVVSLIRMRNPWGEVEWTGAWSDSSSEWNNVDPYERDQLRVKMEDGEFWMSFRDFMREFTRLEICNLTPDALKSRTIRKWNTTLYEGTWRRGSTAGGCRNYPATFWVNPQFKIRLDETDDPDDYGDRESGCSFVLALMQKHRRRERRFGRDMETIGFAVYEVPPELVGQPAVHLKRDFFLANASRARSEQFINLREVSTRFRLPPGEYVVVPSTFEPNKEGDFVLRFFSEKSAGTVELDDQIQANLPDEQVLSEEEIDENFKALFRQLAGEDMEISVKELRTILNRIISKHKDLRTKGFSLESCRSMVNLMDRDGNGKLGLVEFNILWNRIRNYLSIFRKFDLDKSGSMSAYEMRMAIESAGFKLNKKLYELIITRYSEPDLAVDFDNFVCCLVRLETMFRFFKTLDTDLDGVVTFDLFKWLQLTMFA
T1 chain 2: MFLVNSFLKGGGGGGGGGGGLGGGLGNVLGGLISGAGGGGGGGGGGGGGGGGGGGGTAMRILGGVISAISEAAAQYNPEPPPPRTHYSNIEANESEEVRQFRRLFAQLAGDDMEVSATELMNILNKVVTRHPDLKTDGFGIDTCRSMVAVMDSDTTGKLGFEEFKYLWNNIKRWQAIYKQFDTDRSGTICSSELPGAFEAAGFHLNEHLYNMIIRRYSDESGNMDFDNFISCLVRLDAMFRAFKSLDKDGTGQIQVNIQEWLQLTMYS
Experiment notes: fluorescence-based enzyme inhibition assay
Positions of bridges follow the written chain, without caps; N, C: chain ends. Non-standard residues stand in square brackets, D forms with d. No end group written: not given here. alpha,alpha'‑meta‑xylylene = alpha,alpha'-meta-xylylene linker (from a,a'-dibromo-meta-xylene) bridging two cysteines via bis-thioether; Bip = N[C@@H](Cc1ccc(-c2ccccc2)cc1)C(=O)O; 2Nal = N[C@@H](Cc1ccc2ccccc2c1)C(=O)O
Readout label: Ki (µM)
Record the value in µM, omitting the unit from your answer.

// Ki lookup, binder = SCE[Bip]RCVMNG[2Nal] (linker 2-6 via alpha,alpha'‑meta‑xylylene, also called compound (IIIa)) [SCE(bip)RCVMNG(nap) (SEQ ID NO:9)] , result: 19.8
